Reference source for all entries: patent US20100286145A1

Kindly state Ki for each of the entries shown.
# assayed-system: memapsin 2 (Homo sapiens)
# assay-name: Inhibition of memapsin 2 beta-secretase activity (fluorogenic substrate FS-2)
# Type: biochemical
# assay-context: memapsin 2, pH 4, 37° C., 20 minutes pre-incubation; read-out: M2Ki

Batch of 3 molecules: report Ki for each.
1. Cc1cc(C(=O)N[C@@H](Cc2ccccc2)[C@H](O)CNCc2ccnc(C(C)C)c2)cc(C(=O)N(C)Cc2nc(C)cs2)c1
2. C[C@@H](NC(=O)c1cc(C(=O)N[C@@H](Cc2ccccc2)[C@H](O)CNCc2cc(C(C)(C)C)ccc2O)cc(N(C)S(C)(=O)=O)c1)c1ccccc1
3. Cc1csc(CN(C)C(=O)c2cccc(C(=O)N[C@@H](Cc3ccccc3)[C@H](O)CNCc3cccc(C(C)(C)C)c3)c2)n1

### Response
1. < 300 nM
2. < 300 nM
3. < 300 nM

====

# assayed-system: memapsin 2 (Homo sapiens, UniProt P56817)
# Sequence (P56817 46-501): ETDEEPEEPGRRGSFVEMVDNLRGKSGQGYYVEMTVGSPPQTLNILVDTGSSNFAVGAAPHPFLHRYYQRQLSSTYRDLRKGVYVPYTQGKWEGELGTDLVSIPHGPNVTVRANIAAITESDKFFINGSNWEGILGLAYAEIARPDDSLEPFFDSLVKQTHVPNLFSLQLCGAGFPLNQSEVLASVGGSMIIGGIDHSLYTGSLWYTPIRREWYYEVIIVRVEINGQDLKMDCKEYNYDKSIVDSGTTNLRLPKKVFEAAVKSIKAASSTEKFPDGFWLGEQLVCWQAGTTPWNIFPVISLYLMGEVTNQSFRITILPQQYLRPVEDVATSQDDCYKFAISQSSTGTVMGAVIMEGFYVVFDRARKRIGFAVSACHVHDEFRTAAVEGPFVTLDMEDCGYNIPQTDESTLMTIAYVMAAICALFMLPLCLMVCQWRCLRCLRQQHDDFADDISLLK
# assay-name: Inhibition of memapsin 2 beta-secretase activity (fluorogenic substrate FS-2)
# Assay type: biochemical
# assay-context: memapsin 2, pH 4, 37° C., 20 minutes pre-incubation; read-out: M2Ki
quantity-kind: Ki

Cc1csc(CN(C)C(=O)c2cccc(C(=O)N[C@@H](Cc3ccccc3)[C@H](O)CNCc3cncc(C#N)c3)c2)n1 = 301 to 500 nM
CCN(CC)c1cc(C(=O)N[C@@H](Cc2ccccc2)[C@H](O)CNCc2cccc(OC)c2)cc(C(=O)N(C)Cc2nc(C)cs2)c1 = < 300 nM
C=C(C)c1cc(O)cc(CNC[C@@H](O)[C@H](Cc2ccccc2)NC(=O)c2cccc(C(=O)N(C)Cc3nc(C)cs3)c2)c1 = < 300 nM
Cc1csc(CN(C)C(=O)c2cccc(C(=O)N[C@@H](Cc3ccccc3)[C@H](O)CNCc3ccc(CO)c(C)n3)c2)n1 = > 501 nM
COc1cccc(CNC[C@@H](O)[C@H](Cc2ccccc2)NC(=O)c2cccc(C(=O)N(C)Cc3cccc(C)n3)c2)c1 = 301 to 500 nM

Batch of 7 compounds: report Ki for each.
1. COc1cccc(CNC[C@@H](O)[C@H](Cc2ccccc2)NC(=O)c2cc(NO)cc(C(=O)N(C)Cc3nc(C)cs3)c2)c1
2. CNc1cc(CNC[C@@H](O)[C@H](Cc2ccccc2)NC(=O)c2cccc(C(=O)N(C)Cc3nc(C)cs3)c2)cc(C(C)C)c1
3. CNC(=O)c1cc(C(=O)N[C@@H](Cc2ccccc2)[C@H](O)CNCc2cccc(OC)c2)cc(C(=O)N[C@H](C)c2ccccc2)c1
4. COC(=O)c1cc(C(=O)N[C@@H](Cc2ccccc2)[C@H](O)CNCc2cccc(OC)c2)cc(C(=O)N(C)Cc2nc(C)cs2)c1
5. COc1cccc(CNC[C@@H](O)[C@H](Cc2ccccc2)NC(=O)c2cc(C(=O)N(C)Cc3nc(C)cs3)cc(C3=NCCO3)c2)c1
6. Cc1csc(CN(C)C(=O)c2cccc(C(=O)N[C@@H](Cc3ccccc3)[C@H](O)CNC(C)c3cccc(C(F)F)c3)c2)n1 (stereo partly drawn)
7. Cc1csc(CN(C)C(=O)c2cccc(C(=O)N[C@@H](Cc3ccccc3)[C@H](O)CNCc3cccc(N(C)C)c3)c2)n1

### Response
1: < 300 nM; 2: < 300 nM; 3: > 501 nM; 4: < 300 nM; 5: < 300 nM; 6: < 300 nM; 7: < 300 nM
